Origin of the recorded values: patent US20230157952A1

Experiment: Effect of concentration on the stability of the solution (purity over time)
Details: 5 wt %; in water at 25° C.
In this section we review reported Purity at Day 7 values for a set of compounds.
outcome-measure: Purity at Day 7 (%)

> print(dat)
                                   compound  numeric.readout
1  CCN(CC)CCOC(=O)Cc1sc(-c2ccccc2)nc1-c1ccc(Cl)cc1.Cl             98.0
2  CCN(CC)CCOC(=O)CCc1nc(-c2ccccc2)c(-c2ccccc2)o1.Cl             97.8
3  CCN(CC)CCOC(=O)C(C)c1ccc2oc(-c3ccc(Cl)cc3)nc2c1.Cl (stereo not shown)             97.9
4    CCN(CC)CCOC(=O)CCc1ccc2cc(OC)ccc2c1.Cl             98.0
5  CCN(CC)CCOC(=O)Cc1c(C)n(C(=O)c2ccc(Cl)cc2)c2ccc(OC)cc12.Cl             98.0
6  CCN(CC)CCOC(=O)CC1=C(C)C(=Cc2ccc([S+](C)[O-])cc2)c2ccc(F)cc21.Cl (stereo not shown)             97.1
7  CCN(CC)CCOC(=O)Cc1ccc(C(=O)c2ccc(C)cc2)n1C.Cl             97.0
